Test system: SNB-75 CNS
ASSAY DETAILS: NCI-60 one-dose screen, 48 h
CONDITIONS USED: 10 µM unless noted
Compounds without any hit were thinned out: in the full panel of roughly 83,000, 20% have a hit. The source made the active and inactive calls. How the source made its calls: active means growth percent below 10; inactive means the rest.
Labels: true (1) (active), false (0) (inactive)

• COc1ccc(/C(C)=C(\c2ccc(Cl)cc2)c2ccc(OCCN)cc2)cc1 = false (0)
• CCCCCCCCCC[C@@H](C)[C@@H]1CC(=O)N[C@H]([C@@H](C)O)C(=O)N[C@@H](C)C(=O)N[C@H](C)C(=O)N[C@@H](CCC(N)=O)C(=O)N[C@H](Cc2ccc(O)cc2)C(=O)N[C@@H](C(C)CC)C(=O)O1 (some centres undefined) = false (0)
• COc1ccc(C2C(C#N)=C(N)Oc3c2sc2ccc(C)cc32)cc1 (centres undefined) = true (1)
• Cn1cc(-c2nn3c(=O)cc(-c4ccccc4)nc3s2)c2cc(F)ccc21 = false (0)

----------
System: SNB-19 CNS
ASSAY DETAILS: NCI-60 one-dose screen, 48 h
CONDITIONS USED: 10 µM unless noted
This is part of a sample that, as a whole, favours compounds with a hit. Of some 83,000 tested, about 20% had one in any assay. Activity calls are given as the source filed them. The calls were made as follows: active = growth percent below 10; inactive = the rest.
Labels: Yes (active), No (inactive)

- O=c1c2ccccc2nc(COc2ccccc2)n1/N=C/C=C/c1ccccc1: No
- Oc1ccc(CSc2nnc(-c3cnccn3)n2-c2ccccc2)c2cccnc12: No
- COCCOc1ccc(-c2csc(NC(=O)CN3CCN(CCO)CC3)n2)cc1NS(=O)(=O)c1cccc2c(N(C)C)cccc12: No
- CC1=CC(=O)CC(C)(C)[C@@]1(O)/C=C/C(C)=C\C(=O)O: Yes
- O=c1cc(-c2ccccc2)nc2sc(-c3c[nH]c4ccc(F)cc34)nn12: No
- C=C(C)[C@@H]1CC[C@]2(C(=O)ON)CC[C@]3(C)[C@H](CC[C@@H]4[C@@]5(C)C/C(=C/c6ccc(Br)cc6)C(=O)C(C)(C)[C@@H]5CC[C@]43C)[C@@H]12: No
- NS(=O)(=O)c1ccc(Nc2nc(N/N=C/c3ccc(F)cc3)nc(Nc3ccccc3)n2)cc1: No
- COc1cc(C2CC(c3ccc(Nc4nc(NCCO)nc(Nc5ccc(Cl)cc5)n4)cc3)=Nc3c(N)nc(N)nc3N2)cc(OC)c1OC (stereo not given): No
- Cc1ccc(-c2cc(-c3ccc(N(C)C)cc3)n3c(n2)nc2ccccc23)cc1: No
- O=S(=O)(NCCCNc1nccc(-n2cnc3ccccc32)n1)c1ccc(F)cc1: No
- CCOC(=O)c1c(NCC(=O)Nc2ccc(Br)cc2)sc2c1CCCC2: No
- CCCCCCNC(=O)Oc1ccc(/C(=C(/C)c2ccccc2)c2ccc(OCCN(C)C)cc2)cc1: No
- C#C[C@]1(O)CC[C@H]2[C@@H]3CC=C4c5sc(Nc6cccc(Cl)n6)nc5CC[C@]4(C)[C@H]3CC[C@@]21C: Yes
- CN(C)c1ccc(/C=N/Nc2nc(N/N=C/c3ccc(N(C)C)cc3)nc(N3CCOCC3)n2)cc1: No
- CC[C@@](C)(NC(=O)C(C)(C)NC(=O)[C@@H](NC(=O)[C@@H]1CCCN1C(=O)C(C)(C)NC(=O)[C@H](CC(C)C)NC(=O)CNC(=O)C(C)(C)NC(=O)[C@@H](NC(=O)C(C)(C)NC(=O)[C@H](CCC(N)=O)NC(=O)[C@H](C)NC(=O)C(C)(C)NC(=O)[C@H](C)NC(=O)C(C)(C)NC(=O)[C@@H]1CCCN1C(=O)C(C)(C)NC(C)=O)C(C)C)C(C)C)C(=O)N[C@@H](CCC(N)=O)C(=O)N[C@@H](CCC(N)=O)C(=O)N[C@H](CO)Cc1ccccc1: No

// data source = PubChem BioAssay (NCI)
